All values here come from ChEMBL document CHEMBL1201862.

In this section, each of the compounds is paired with its reported GI50.
test system: Malme-3M; experiment: NCI tumour cell line growth inhibition, 48 h
Calls of active or inactive are those of the source. Rule as the data show it: active = GI50 up to about 1.1 µM and inactive = higher.
Measurement Type: GI50

> print(dat)
                                   compound      endpoint.result
1          O=C(O)COc1ccc(O)c2c1C(=O)CCCC2=O  > 100 µM (inactive)
2  OC1C2C=CCC1CCC2 (configuration not stated)  > 100 µM (inactive)
3  O=C(NCCN1CCOCC1)c1cn2c(ccc3sc4ccccc4c(=O)c32)n1   22.7 µM (inactive)
4  Nc1nc(Cl)cc(NCC2(CO)CC(O)C2)n1 (configuration not stated)  > 100 µM (inactive)
5    O=C(O)c1ccc(C2=Nc3cccc4cccc(c34)N2)cc1  > 100 µM (inactive)
6  Cc1cc2nc3ccc(N(C)C)cc3[s+]c2cc1N [TOLONIUM CHLORIDE]   1.93 µM (inactive)
7  C=C1CCCC2[C@](C)(CC3=C(Cl)C(=O)C=C(OC)C3=O)C(C)CC[C@]12C (some centres not stated)   8.18 µM (inactive)

====

tested on: NCI-H522; assay: NCI tumour cell line growth inhibition, 48 h
Where a name gives a salt, the structure may show the parent alone. Calls of active or inactive are those of the source. Cut-off read from the data, not from the text of the source: active = GI50 up to about 1.1 µM and inactive = higher.
Measurement Type: GI50

> print(dat)
                                    molecule      endpoint.result
 1  N=C(N)c1ccc(-c2ccc(-c3ccc(C(=N)N)cc3)o2)cc1 [FURAMIDINE HYDROCHLORIDE]   24.8 µM (inactive)
 2  O=C1c2ccccc2C2(O)Oc3cccc(O)c3C12O (configuration not stated)  > 100 µM (inactive)
 3  COc1ccccc1NC(=O)c1nc2ccc([N+](=O)[O-])cc2nc1C   57.8 µM (inactive)
 4                       COn1cc(CO)c2ccccc21   21.5 µM (inactive)
 5  COC(=O)C1=C(C)NC(C)=C([N+](=O)[O-])C1c1cccc(N=O)c1 (configuration not stated)   1.66 µM (inactive)
 6  N#CC(C#N)=Cc1ccc(C(O)P(=O)(O)O)cc1 (configuration not stated)   56.6 µM (inactive)
 7          c1ccc2c3c(c(N4CCOCC4)nc2c1)CCCC3   29.7 µM (inactive)
 8                O=C1CNc2cc(N3CCOCC3)ccc2N1  > 100 µM (inactive)
 9                O=C1NCC2(CCNCC2)N1c1ccccc1  > 100 µM (inactive)
10  CC(C)=CCC[C@@H](C)C1=C(O)C(=O)C(C)=C(Nc2ccccc2Cl)C1=O   6.25 µM (inactive)
11  O=C(O[C@H]1[C@@H](O)[C@H](n2cnc3c(Cl)ncnc32)O[C@@H]1COC(c1ccccc1)(c1ccccc1)c1ccccc1)c1ccccc1   5.09 µM (inactive)
12  O=C(CNc1ccc(Cl)cc1Cl)NC1C=Cc2ccc(S(=O)(=O)Nc3ccc(Cl)cc3Cl)cc2C1=O (configuration not stated)  > 100 µM (inactive)
13          COc1ccc(C(=O)/C=C/c2ccncc2)cc1OC   7.73 µM (inactive)
14  CSc1cc(Cl)c(C)cc1S(=O)(=O)NC(=O)NNc1cnc2ccccc2n1  > 100 µM (inactive)
15            O=C(O)COc1ccccc1C(=O)Nc1ccccc1  > 100 µM (inactive)
16  Cc1cn(C2CC(/[N+]([O-])=N\Nc3ccc([N+](=O)[O-])cc3)C(CO)O2)c(=O)[nH]c1=O (configuration not stated)  > 100 µM (inactive)
17  COC(=O)C1CCC[C@H]2C(CO)=C(C)C(=O)[C@@H]12 (some centres not stated)  > 100 µM (inactive)
18  OCC(O)C(O)C(O)C(/C=N\Nc1ncnc2ccc(Br)cc12)=N/Nc1ncnc2ccc(Br)cc12 (configuration not stated)    0.596 µM (active)
19                           CN1CCN(CCCN)CC1  > 100 µM (inactive)
20    O=C1Nc2ccccc2/C1=N/NC(=S)Nc1ccc(Cl)cc1     57 µM (inactive)
21  COc1ccc(NC(=O)CC(=O)N2N=C(C)C(/N=N/c3ccc(C(=O)O)cc3)C2=O)cc1 (configuration not stated)  > 100 µM (inactive)
22      CN(C)Cc1cc(/N=N/c2c(Cl)cccc2Cl)ccc1O  > 100 µM (inactive)
